- EXPERIMENTAL_DETAILS: HILIC, Phenomenex Kinetex HILIC, 150 × 3 mm, 2.6 µm, 40 °C, 0.35 mL/min, estimated dead time 1.9 min; A: water + 0.1% formic acid, pH 3; B: methanol; gradient (min/%B) 0/95 20/0 25/0 30/95
- CONDITION_SET: stereoisomer not certain
Known LC retention time of a selection of compounds

COMPOUND: Cc1ccc(S(=O)(=O)N(C)N=O)cc1 [N-Methyl-N-nitrosotoluene-4-sulphonamide]
LC retention time: 2.38 min
//
COMPOUND: COC(=O)C1C2CC3c4[nH]c5cc(OC)ccc5c4CCN3CC2CC(OC(=O)c2cc(OC)c(OC)c(OC)c2)C1OC (stereo not drawn)
LC retention time: 3.31 min
//
COMPOUND: O=C(NCC1CCCCN1)c1cc(OCC(F)(F)F)ccc1OCC(F)(F)F (stereo not drawn) [Flecainide]
LC retention time: 3.47 min
//
COMPOUND: CC(C)(C)C(=O)C(Oc1ccc(Cl)cc1)n1ccnc1 (stereo not drawn)
LC retention time: 2.73 min
//
COMPOUND: CCN=C1NC(NC(C)C)=NC(SC)N1 (stereo not drawn)
LC retention time: 2.32 min
//
COMPOUND: CN(C)CC(c1ccc(O)cc1)C1(O)CCCCC1 (stereo not drawn)
LC retention time: 4.13 min
//
COMPOUND: CC(=O)N1CCN(c2ccc(OCC3COC(Cn4ccnc4)(c4ccc(Cl)cc4Cl)O3)cc2)CC1 (stereo not drawn)
LC retention time: 4.05 min
//
COMPOUND: NCC1(CC(=O)O)CCCCC1
LC retention time: 3.33 min
//
COMPOUND: CN1CC(=O)NC1=N
LC retention time: 4 min
//
COMPOUND: CCN=C1NC(NC(C)C)=NC(OC)N1 (stereo not drawn)
LC retention time: 2.68 min
//
COMPOUND: C=CCOC(Cn1ccnc1)c1ccc(Cl)cc1Cl (stereo not drawn)
LC retention time: 3.65 min
//
COMPOUND: CN1C(=O)CCC1c1cccnc1 (stereo not drawn)
LC retention time: 3.02 min
//
COMPOUND: O=C(CCCN1CCC(O)(c2ccc(Cl)cc2)CC1)c1ccc(F)cc1
LC retention time: 3.41 min

====

- EXPERIMENTAL_DETAILS: RP, Phenomenex Kinetex PS C18, 150 × 3 mm, 2.6 µm, 40 °C, 0.35 mL/min, estimated dead time 1.9 min; A: water + 5 mM ammonium acetate, pH 5; B: methanol; gradient (min/%B) 0/5 20/100 25/100 30/5
- CONDITION_SET: stereoisomer not certain
Each record here notes measured LC retention time.

COMPOUND: C#CC1(O)CCC2C3CCC4=CC(=O)CCC4C3CCC21C (stereo not given) [Norethindrone]
LC retention time / min: 15.9

COMPOUND: Nc1ccc(Cl)cc1 [4-Chloroaniline]
LC retention time / min: 10.3

COMPOUND: Cc1ccc2n[nH]nc2c1 [5-Methyl-1H-benzotriazole]
LC retention time / min: 10.4

COMPOUND: CCC(=O)Nc1ccc(Cl)c(Cl)c1 [Propanil]
LC retention time / min: 15

COMPOUND: Cc1cc(C)nc(NS(=O)(=O)c2ccc(N)cc2)n1 [Sulfamethazine]
LC retention time / min: 7.93

COMPOUND: c1ccc2n[nH]nc2c1 [1H-Benzotriazole]
LC retention time / min: 8.12

COMPOUND: CN(C)CC(c1ccc(O)cc1)C1(O)CCCCC1 (stereo not given) [O-Desmethylvenlafaxine]
LC retention time / min: 9.2

COMPOUND: CSC1N=C(NC2CC2)NC(NC(C)(C)C)N1 (stereo not given) [Irgarol]
LC retention time / min: 16.6

COMPOUND: COC(=O)C1CCCCC1S(=O)(=O)NC(=O)NC1=NC(OC)NC(C)N1 (stereo not given) [Metsulfuron-methyl]
LC retention time / min: 9.47

COMPOUND: CCN=C1NC(NC(C)C)=NC(SC)N1 (stereo not given) [Ametryn]
LC retention time / min: 15.1
